Taken from patent US20220073621A1.

Assayed target: T1, hPD-L1-His (human, UniProt Q9NZQ7 19-238)
T1 construct: Bought protein; also called hPD-L1-His (manufactured by Edison); not shown: His tag
T1 sequence (Q9NZQ7 19-238 limits assumed): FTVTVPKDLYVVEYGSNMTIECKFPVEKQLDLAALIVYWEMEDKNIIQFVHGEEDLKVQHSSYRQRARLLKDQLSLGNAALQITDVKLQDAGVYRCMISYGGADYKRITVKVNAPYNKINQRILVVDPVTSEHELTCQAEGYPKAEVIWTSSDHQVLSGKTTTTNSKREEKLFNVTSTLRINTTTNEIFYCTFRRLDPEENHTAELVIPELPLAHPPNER
Experiment: SPR (Biacore T200), antibody on Protein A chip, hPD-L1-His injected, 1:1 fit
Measured parameter: kon (M⁻¹ s⁻¹)
# number only, unit M⁻¹ s⁻¹ dropped from output

Record excerpt, results attached:
>  <Binder>
33-10C9-mHvKv-IgG1-N297A (antibody, V domains shown) VH: QVQLQQPGAELVKPGSSVKLSCKASGYTFTTYYIYWVKQRPGQGLEWIGGINPYNGGTSFNEKFESKATLTVDISSSTAFMQLSSLTSEDSAVYYCTRDGNYVDYWGQGTTLTVSS VL: QIVLTQSPAIMSASPGEKVTITCSASSTVSYVHWLQQKPDTSPKLWIYSTSNLASGVPARFSGSGSGTSYSLTISRMEAEDAATYYCQQRSSSPPTFGSGTKLEIK

>  <Units symbol>
M⁻¹ s⁻¹

>  <kon>
122000

$$$$
>  <Binder>
6A11-H2K3-IgG1 (antibody, V domains shown) VH: EVQLVESGGGLVQPGGSLRLSCAASGFTFSSFGMHWVRQAPGKGLEWVSYISSGSNTIYYADTVKGRFTISRDNAKNSLYLQMNSLRAEDTAVYYCTRNGYDGWYAMDYWGQGTTVTVSS VL: EIVLTQSPATLSASPGERATLSCSASSSVSYIHWFQQKPGQSPRRWIYDTSKLASGIPARFSGSGSGTDYTLTISSMEPEDFATYYCQQWSTNPFTFGQGTKLEIKR

>  <Units symbol>
M⁻¹ s⁻¹

>  <kon>
162000

$$$$
>  <Binder>
07-6A11-mHvKv-IgG1 (antibody, V domains shown) VH: DVQLVESGGGLVQPGGSRKLSCAASGFTFSSFGMHWVRQAPEKGLEWVAYISSGSNTIYYADTVKGRFTISRDNPKNTLFLQMTSLRSEDTAIYYCTRNGYDGWYAMDYWGQGTSVTVSS VL: QIVLTQSPAIMSASPGEKVTMTCSASSSVSYIHWFQQKSGTSPKRWIYDTSKLASGVPARFSGRGSGTSYSLTISSMEAEDAATYYCQQWSTNPFTFGSGTKLEIK

>  <Units symbol>
M⁻¹ s⁻¹

>  <kon>
252000

$$$$

Next binder, please.
input: Give kon for 7E4-H1K2-IgG1 (antibody, V domains shown) VH: QVQLVQSGAEVKKPGASVKVSCKASGFKFTDYAIHWVRQAPGQSLEWMGVISIYYGEASYNQKFKDRVTLTVDTSASTAYMELSSLRSEDTAVYYCAREDYYGSSSYFDYWGQGTLVTVSS VL: DNVLTQSPSFLSASVGDRVTMTCSASSSVSSSYLHWYQQKPGASPKPLIHRTSNLASGVPSRFSGSGSGTEFTLTISSLQPEDFATYYCQQWSGYPYTFGGGTKLEIK
output: 126000
